Origin of the recorded values: patent US20250163038A1

Target: Recombinant human Cbl-b (aa 36-427) (Homo sapiens, UniProt Q13191)
Sequence (Q13191 36-427): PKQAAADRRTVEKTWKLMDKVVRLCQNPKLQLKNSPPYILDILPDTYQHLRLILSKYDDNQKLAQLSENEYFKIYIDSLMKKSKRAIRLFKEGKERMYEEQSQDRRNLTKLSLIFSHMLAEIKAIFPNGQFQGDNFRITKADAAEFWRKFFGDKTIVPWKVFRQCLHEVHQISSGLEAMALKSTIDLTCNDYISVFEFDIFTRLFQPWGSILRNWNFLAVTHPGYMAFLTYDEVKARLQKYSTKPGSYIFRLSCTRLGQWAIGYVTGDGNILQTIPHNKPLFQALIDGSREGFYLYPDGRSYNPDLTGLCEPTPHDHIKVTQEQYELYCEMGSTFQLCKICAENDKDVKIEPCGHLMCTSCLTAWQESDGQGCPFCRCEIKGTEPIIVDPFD
Test: Cbl-b Biochemical Assay (TR-FRET)
Conditions: read-out: TR-FRET hCbl-b IC50
outcome_measure: IC50

>>> obs_value("Cn1cnnc1-c1cc(F)ccc1-c1cccc(-c2nc3cc(CN[C@@H]4CCC[C@@H]4O)cc(F)c3o2)c1 [ED-7]")
"< 200 nM"
>>> obs_value("Cn1cnnc1CC1(c2cccc(-c3nc4cc(C(=O)Nc5nccn5C)cc(C(F)(F)F)c4[nH]3)c2)COC1 [ABZ-2]")
"10000 to 50000 nM"
>>> obs_value("Cn1cnnc1-c1cc(F)ccc1-c1cccc(-c2nc3cc(CN[C@@H]4CCC[C@@]4(O)C(F)(F)F)cc(C(F)(F)F)c3o2)c1 [JI-3]")
"< 200 nM"
>>> obs_value("COCCNCc1cc(F)c2oc(-c3cc(-c4ccc(F)cc4-c4nncn4C)cc(C4CC4)n3)nc2c1 [AHB-1]")
"< 200 nM"
>>> obs_value("Cn1cnnc1-c1cc(F)ccc1-c1cc(-c2nc3cc(CNCC4CC4)ccc3o2)nc(C2CC2)c1 [AEI-1]")
"< 200 nM"
>>> obs_value("Cn1cnnc1-c1cc(F)ccc1-c1cc(Cl)nc(-c2nc3cc(CO)cc(C(F)(F)F)c3[nH]2)c1 [ADX-3]")
"10000 to 50000 nM"

Missing value: IC50, Recombinant human Cbl-b (aa 36-427) (Homo sapiens, UniProt Q13191), entry Cn1cnnc1-c1cc(F)ccc1-c1cccc(-c2nc3cc(CNC[C@@H](O)C(F)(F)F)cc(C(F)(F)F)c3o2)c1 [CR-3] . Fill in?
< 200 nM

Missing value: IC50, Recombinant human Cbl-b (aa 36-427) (Homo sapiens, UniProt Q13191), entry Cn1cnnc1-c1cc(F)ccc1-c1cc(-c2nc3cc(CNCC(C)(C)O)cc(C(F)(F)F)c3o2)cc(C2CC2)c1 [JL-1] . Fill in?
< 200 nM

Missing value: IC50, Recombinant human Cbl-b (aa 36-427) (Homo sapiens, UniProt Q13191), entry Cn1cnnc1-c1cc(F)ccc1-c1cccc(-c2nc3ccc(CO)cc3o2)c1 [DC-3] . Fill in?
1000 to 10000 nM

Missing value: IC50, Recombinant human Cbl-b (aa 36-427) (Homo sapiens, UniProt Q13191), entry COc1cc(CNCC2CC2)cc2nc(-c3cccc(-c4ccc(F)cc4-c4nncn4C)c3)oc12 [FU-1] . Fill in?
< 200 nM

Missing value: IC50, Recombinant human Cbl-b (aa 36-427) (Homo sapiens, UniProt Q13191), entry Cn1cnnc1CC1(c2cccc(-c3nc4cccc(C(F)(F)F)c4[nH]3)c2)COC1 [ABB-2] . Fill in?
10000 to 50000 nM

Missing value: IC50, Recombinant human Cbl-b (aa 36-427) (Homo sapiens, UniProt Q13191), entry COC[C@H](C)NCc1cc(F)c2oc(-c3cc(-c4ccc(F)cc4-c4nncn4C)cc(C4CC4)n3)nc2c1 [AFU-1] . Fill in?
< 200 nM

Missing value: IC50, Recombinant human Cbl-b (aa 36-427) (Homo sapiens, UniProt Q13191), entry COCCNCc1cc2nc(-c3cc(-c4ccc(F)cc4-c4nncn4C)cc(C4CC4)n3)oc2c(C)c1F [AHG-1] . Fill in?
< 200 nM
